So I've got a bunch of binders here, and I need their CRF1R Emax values.
# ASSAYED SYSTEM: corticotropin releasing factor 1 receptor; note: reference of the scale not given here
# ASSAY: cell-based or functional assay
Ends that are not written are not given here.
Expressed in %, but write only the number.

Q: For the binder ZGPPISIDLPFILLRKMIEIEKQEKEKQQAANNRLLLDTI (C-terminal amide) [SEQ ID NO 189] , what CRF1R Emax is on record?
A: 57

Q: Quick one: CRF1R Emax of IVLSLDVPIGLLQILLEQAAAREQATTNARILARV-NH2 [SEQ ID NO 139] ?
A: 4

Q: So what's the measured CRF1R Emax for this one? IVLSLDVPIGLLQILLEQARAEAAREQATTNARILARV-NH2 [SEQ ID NO 122]
A: 10.7

Q: Returns the measured CRF1R Emax for the input binder. Input: ZGPPISIDLPTFLLRKMIEIEKQEKEKQQAANNRLLLDTI (C-terminal amide) [SEQ ID NO 44]
A: 64

Q: Entry IVLSLDVPIGLLQILLEQRARAAREQATTNARILARV-NH2 [SEQ ID NO 137] : reported CRF1R Emax = ?
A: 4
